- target: CYP3A4 (Homo sapiens, UniProt P08684)
- Sequence (P08684 whole entry): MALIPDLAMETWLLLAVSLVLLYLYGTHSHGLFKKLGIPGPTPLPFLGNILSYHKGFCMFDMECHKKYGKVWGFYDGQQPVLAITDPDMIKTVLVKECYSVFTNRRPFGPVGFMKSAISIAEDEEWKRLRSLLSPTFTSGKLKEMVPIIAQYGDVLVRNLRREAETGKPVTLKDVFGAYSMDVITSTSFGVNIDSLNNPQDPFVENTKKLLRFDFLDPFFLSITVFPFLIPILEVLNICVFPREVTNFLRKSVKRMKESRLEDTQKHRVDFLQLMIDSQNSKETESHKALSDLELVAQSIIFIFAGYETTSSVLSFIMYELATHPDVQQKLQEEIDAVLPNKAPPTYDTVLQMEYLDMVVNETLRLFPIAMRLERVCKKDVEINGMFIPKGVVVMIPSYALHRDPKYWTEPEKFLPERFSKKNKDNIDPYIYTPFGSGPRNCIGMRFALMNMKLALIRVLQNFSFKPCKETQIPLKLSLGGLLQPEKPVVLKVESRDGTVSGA
- assay_comment: Inhibition of CYP3A4 at 3 uM
- Format: ADME
experimental_readout: inhibition at 3 µM

• CCNC(=O)Nc1ccc(-c2nc3c(c(N4CCOC[C@@H]4C)n2)CS(=O)(=O)CC3)cc1 = ≤ 25%

---

Recorded microsomal CLint, one value per entry.
- assay_comment: Clearance in human liver microsomes assessed per mg of protein
- Format: ADME, Microsome
- measurement_context: read-out: CLH
experimental_readout: microsomal CLint (µL/min/mg)

* CCNC(=O)Nc1ccc(-c2nc3c(c(N4CCOC[C@@H]4C)n2)CS(=O)(=O)CC3)cc1 | 8.7
* CCNC(=O)Nc1ccc(-c2nc3c(c(N4CCOC[C@H]4C)n2)S(=O)(=O)CC3)cc1 | 25
* CCNC(=O)Nc1ccc(-c2nc3c(c(N4CCOC[C@@H]4C)n2)S(=O)(=O)CCC3)cc1 | 58

---

# collection of pKi values tested on Serine/threonine-protein kinase mTOR (Homo sapiens)
pKi: −log10 of the molar value.
experimental_readout: pKi

• CCNC(=O)Nc1ccc(-c2nc3c(c(N4CCOC[C@@H]4C)n2)CS(=O)(=O)CC3)cc1 = 8.10
• CCNC(=O)Nc1ccc(-c2nc3c(c(N4CCOC[C@H]4C)n2)S(=O)(=O)CC3)cc1 = 6.92
• CCNC(=O)Nc1ccc(-c2nc3c(c(N4CCOCC4)n2)CS(=O)(=O)CC3)cc1 = 7.30

---

- assay_comment: Clearance in rat
- Type: ADME, organism-based
- measurement_context: in vivo
experimental_readout: clearance (mL/min/kg)

• CCNC(=O)Nc1ccc(-c2nc3c(c(N4CCOC[C@@H]4C)n2)CS(=O)(=O)CC3)cc1 = 66.2

---

- assay_comment: Clearance in human hepatocytes assessed per million cells
- Format: ADME, cell-based, Hepatocyte
- measurement_context: read-out: CLH
experimental_readout: hepatocyte CLint (µL/min/1e6 cells)

• CCNC(=O)Nc1ccc(-c2nc3c(c(N4CCOC[C@H]4C)n2)S(=O)(=O)CC3)cc1 = 11
• CCNC(=O)Nc1ccc(-c2nc3c(c(N4CCOC[C@@H]4C)n2)S(=O)(=O)CCC3)cc1 = 28

---

- assay_comment: Oral bioavailability in rat
- Format: ADME, organism-based
- measurement_context: in vivo
experimental_readout: bioavailability

• CCNC(=O)Nc1ccc(-c2nc3c(c(N4CCOC[C@@H]4C)n2)CS(=O)(=O)CC3)cc1 = 30%

---

- target: CYP1A2 (Homo sapiens, UniProt P05177)
- Sequence (P05177 whole entry): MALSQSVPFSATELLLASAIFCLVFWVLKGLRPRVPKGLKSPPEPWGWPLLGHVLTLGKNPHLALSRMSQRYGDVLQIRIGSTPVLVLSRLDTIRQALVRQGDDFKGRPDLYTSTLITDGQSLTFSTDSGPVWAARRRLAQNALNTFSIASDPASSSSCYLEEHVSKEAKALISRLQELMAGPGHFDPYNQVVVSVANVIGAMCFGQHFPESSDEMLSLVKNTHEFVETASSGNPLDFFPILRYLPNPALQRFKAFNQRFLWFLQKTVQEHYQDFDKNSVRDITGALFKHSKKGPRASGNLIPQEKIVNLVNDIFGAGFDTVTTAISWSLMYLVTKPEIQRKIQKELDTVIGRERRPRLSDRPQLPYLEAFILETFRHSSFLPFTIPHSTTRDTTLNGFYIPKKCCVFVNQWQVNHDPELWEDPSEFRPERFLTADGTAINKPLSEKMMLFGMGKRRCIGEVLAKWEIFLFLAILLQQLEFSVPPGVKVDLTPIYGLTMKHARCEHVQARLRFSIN
- assay_comment: Inhibition of CYP1A2 at 3 uM
- Assay type: ADME
experimental_readout: inhibition at 3 µM

* CCNC(=O)Nc1ccc(-c2nc3c(c(N4CCOC[C@@H]4C)n2)CS(=O)(=O)CC3)cc1 | ≤ 25%

---

- target: Phosphatidylinositol 4,5-bisphosphate 3-kinase catalytic subunit alpha isoform (Homo sapiens)
- Sequence (P42336 whole entry, canonical isoform): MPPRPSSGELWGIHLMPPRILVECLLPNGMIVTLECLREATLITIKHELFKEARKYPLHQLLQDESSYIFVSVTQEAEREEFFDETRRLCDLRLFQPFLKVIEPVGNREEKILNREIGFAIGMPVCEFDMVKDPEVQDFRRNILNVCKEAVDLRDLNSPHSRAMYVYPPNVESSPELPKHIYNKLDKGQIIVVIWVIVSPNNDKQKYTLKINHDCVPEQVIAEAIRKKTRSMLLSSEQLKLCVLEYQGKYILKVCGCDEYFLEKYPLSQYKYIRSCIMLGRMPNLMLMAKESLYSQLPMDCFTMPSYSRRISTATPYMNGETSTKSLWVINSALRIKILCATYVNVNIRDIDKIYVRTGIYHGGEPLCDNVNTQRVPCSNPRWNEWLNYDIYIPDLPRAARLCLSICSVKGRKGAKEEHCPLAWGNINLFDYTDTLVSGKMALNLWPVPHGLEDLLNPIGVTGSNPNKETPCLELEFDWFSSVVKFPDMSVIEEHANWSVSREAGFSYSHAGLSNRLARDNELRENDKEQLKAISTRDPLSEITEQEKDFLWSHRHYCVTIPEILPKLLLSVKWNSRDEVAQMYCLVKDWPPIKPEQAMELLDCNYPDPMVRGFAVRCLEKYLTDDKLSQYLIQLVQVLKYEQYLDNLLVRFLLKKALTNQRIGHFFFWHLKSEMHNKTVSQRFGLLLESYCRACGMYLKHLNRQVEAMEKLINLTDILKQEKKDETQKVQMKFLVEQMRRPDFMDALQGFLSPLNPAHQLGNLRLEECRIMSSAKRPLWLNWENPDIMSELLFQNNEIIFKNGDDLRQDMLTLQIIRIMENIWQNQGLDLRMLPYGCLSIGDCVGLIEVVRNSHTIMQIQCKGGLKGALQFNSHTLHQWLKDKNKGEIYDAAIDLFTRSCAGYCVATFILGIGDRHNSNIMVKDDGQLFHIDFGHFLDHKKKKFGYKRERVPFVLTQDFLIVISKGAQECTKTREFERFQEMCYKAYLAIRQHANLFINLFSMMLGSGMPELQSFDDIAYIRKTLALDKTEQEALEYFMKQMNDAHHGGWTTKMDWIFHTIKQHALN
- assay_comment: Inhibition of PI3Kalpha
experimental_readout: Ki

- CCNC(=O)Nc1ccc(-c2nc3c(c(N4CCOC[C@@H]4C)n2)S(=O)(=O)CCC3)cc1: > 4.55 µM
- CCNC(=O)Nc1ccc(-c2nc3c(c(N4C[C@H]5CC[C@@H](C4)O5)n2)CS(=O)(=O)CC3)cc1: 3 µM
- CCNC(=O)Nc1ccc(-c2nc3c(c(N4CCOC[C@@H]4C)n2)CS(=O)(=O)CC3)cc1: > 4.55 µM
- CCNC(=O)Nc1ccc(-c2nc3c(c(N4CCOCC4)n2)CS(=O)(=O)C3)cc1: 0.514 µM
- CCNC(=O)Nc1ccc(-c2nc3c(c(N4CCOCC4)n2)CS(=O)(=O)CC3)cc1: > 4.55 µM
- CCNC(=O)Nc1ccc(-c2nc3c(c(N4CCOC[C@H]4C)n2)CS(=O)(=O)CC3)cc1: > 4.55 µM

---

- target: Serine/threonine-protein kinase mTOR (Homo sapiens, UniProt P42345)
- assay_comment: Inhibition of mTOR-mediated ribosomal protein S6 kinase phosphorylation by cell based assay
pIC50: −log10 of the molar value.
experimental_readout: pIC50

• CCNC(=O)Nc1ccc(-c2nc3c(c(N4CCOC[C@@H]4C)n2)CS(=O)(=O)CC3)cc1 = 8.22

---

- target: Serine/threonine-protein kinase mTOR (Homo sapiens)
- assay_comment: Inhibition of mTOR-mediated AKT phosphorylation at Ser473 by cell based assay
experimental_readout: IC50 (nM)

• CCNC(=O)Nc1ccc(-c2nc3c(c(N4CCOC[C@@H]4C)n2)CS(=O)(=O)CC3)cc1 = 48
• CCNC(=O)Nc1ccc(-c2nc3c(c(N4C[C@@H]5C[C@H]4CO5)n2)CS(=O)(=O)C3)cc1 = 1290
• CCNC(=O)Nc1ccc(-c2nc3c(c(N4C[C@H]5CC[C@@H](C4)O5)n2)CS(=O)(=O)CC3)cc1 = 55
• CCNC(=O)Nc1ccc(-c2nc3c(c(N4C[C@H]5CC[C@@H](C4)O5)n2)CS(=O)(=O)C3)cc1 = 84

---

- assay_comment: Clearance in human hepatocytes assessed per million cells
- Type: ADME, cell-based, Hepatocyte
- measurement_context: read-out: CLH
Recorded hepatocyte CLint, one value per entry.
experimental_readout: hepatocyte CLint

* CCNC(=O)Nc1ccc(-c2nc3c(c(N4CCOC[C@@H]4C)n2)CS(=O)(=O)CC3)cc1 | < 2 µL/min/1e6 cells
* CCNC(=O)Nc1ccc(-c2nc3c(c(N4CCOCC4)n2)CS(=O)(=O)C3)cc1 | < 2 µL/min/1e6 cells
* CCNC(=O)Nc1ccc(-c2nc3c(c(N4CCOCC4)n2)CS(=O)(=O)CC3)cc1 | < 2 µL/min/1e6 cells
